Each record here notes measured cAMP Rel EC50 (1% HSA).
# experimental-target: hGLP-1R (Homo sapiens, UniProt P43220)
# Sequence (P43220 24-463): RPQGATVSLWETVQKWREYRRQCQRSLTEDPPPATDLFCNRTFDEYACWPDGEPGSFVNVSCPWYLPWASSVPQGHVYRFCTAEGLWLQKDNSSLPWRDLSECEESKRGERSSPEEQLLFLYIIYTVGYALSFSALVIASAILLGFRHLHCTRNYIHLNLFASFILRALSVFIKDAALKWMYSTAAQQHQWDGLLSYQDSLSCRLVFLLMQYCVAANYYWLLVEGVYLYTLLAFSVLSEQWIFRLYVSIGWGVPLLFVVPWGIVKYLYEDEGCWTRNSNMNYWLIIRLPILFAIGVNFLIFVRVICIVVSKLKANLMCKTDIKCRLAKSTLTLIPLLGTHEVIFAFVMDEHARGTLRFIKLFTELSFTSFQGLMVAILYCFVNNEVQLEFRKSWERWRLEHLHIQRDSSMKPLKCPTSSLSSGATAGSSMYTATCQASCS
# assay-notes: cell-based or functional assay
Starred links: 1 amine or outer side, 2 acyl side, 3 side chain; linkers in the order of their positions; H or OH if unused. Non-standard residues stand in square brackets, D forms with d. Groups on a side chain read outwards from the residue. No end group written: not given here. *: point of attachment. C20 diacid = O=C(O)CCCCCCCCCCCCCCCCCCC(=O)*; αMePhe(2-F) = C[C@](N)(Cc1ccccc1F)C(=O)O; γGlu = O=C(O)[C@H](CCC(=O)[*:2])N[*:1]; αMeL = CC(C)C[C@](C)(N)C(=O)O; AEEA = NCCOCCOCC(=O)O; Aib = CC(C)(N)C(=O)O

# example entries with known answers
INSERT INTO results (binder, result) VALUES
  ('YXQGTFTSDXSQXLDXKAQXAFIEYLIQXGPSSGEPPPSGSEE (not fully specified; non-natural residues, γGlu-C18 diacid acyl on K, C-terminal amide; synthetic construct; SITE 2: note = 2-Aminoisobutyric Acid; SITE 10: note = 3-(4-Pyridyl)-L-alanine; SITE 13: note = alpha-methyl-leucine; SITE 16: note = L-ornithine; SITE 17: note = Lysine is chemically modified through conjugation of the epsilon-amino group of the Lysine side chain with D-Glutami) [Example 1102]', '295 nM'),
  ('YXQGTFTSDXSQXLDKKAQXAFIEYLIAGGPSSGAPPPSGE (Aib, 4Pal, αMeL, Me4Pal; acylated K; C-terminal amide; synthetic construct; SITE 2: note = 2-Aminoisobutyric Acid; SITE 10: note = 3-(4-Pyridyl)-L-alanine; SITE 13: note = alpha-methyl-leucine; SITE 17: note = Lysine is chemically modified through conjugation of the epsilon-amino group of the Lysine side chain with (Glu)-(gamma-Glu)-CO-(CH2)16-CO2H; SIT) [Example 1086]', '496 nM');

Recall and state the measured cAMP Rel EC50 (1% HSA) for Y[Aib]QGTFTSDYSI[αMeL]LDKQAAK([AEEA-AEEA-γGlu-C20 diacid])QFIEWLIEGGPSSGEPPPGAE-NH2 [Example 319] .
119 nM

Tell me cAMP Rel EC50 (1% HSA) reported for YXQGTXTSDXXIXLDXKAQXXFIEYLSEGGPSSGEPPPSGTE (synthetic construct; SITE 2: note = 2-Aminoisobutyric Acid; SITE 6: note = alpha-methyl-2-fluoro-L-phenylalanine; SITE 10: note = 3-(4-Pyridyl)-L-alanine; SITE 11: note = alpha-methyl-L-serine; SITE 13: note = alpha-methyl-leucine; SITE 16: note = L-ornithine; SITE 17: note = Lysine is chemically mo) [Example 530]
437 nM

Indicate the recorded cAMP Rel EC50 (1% HSA) value for this binder: Y[Aib]QGT[αMePhe(2-F)]TSDYSKLLDKIAQKAFIEYLIEGGPSSGAPPPSEG-NH2 (not fully specified (residue 20)) [Example 339]
192 nM

Return the recorded cAMP Rel EC50 (1% HSA) value; entry: YXQGTFTSDXSXXLDKKAQXAFIEXLIEGGPSSGAPPPSGS (synthetic construct; SITE 2: note = 2-Aminoisobutyric Acid; SITE 10: note = 3-(4-Pyridyl)-L-alanine; SITE 12: note = L-ornithine; SITE 13: note = alpha-methyl-leucine; SITE 17: note = Lysine is chemically modified through conjugation of the epsilon-amino group of the Lysine side chain with (2-[2-(2-) [Example 497]
161 nM

Quote cAMP Rel EC50 (1% HSA) reported for Y[Aib]QGTFTSDYSI[αMeL]LDKQAAK([AEEA-AEEA-γGlu-C20 diacid])QFIEWLIEGGPSSGEPPPGEG-NH2 [Example 318] please.
111 nM

Note down cAMP Rel EC50 (1% HSA) recorded for YXQGTFTSDXSRXLDKKAQXAFIEXLLEGGPSSGAPPPSGS (non-natural residues; lipidated Lys; C-terminal amide; synthetic construct; SITE 2: note = 2-Aminoisobutyric Acid; SITE 10: note = 3-(4-Pyridyl)-L-alanine; SITE 13: note = alpha-methyl-leucine; SITE 17: note = Lysine is chemically modified through conjugation of the epsilon-amino group of the Lysine side chain with (2-[2-(2-Amino-ethoxy)-ethoxy]-acetyl)) [Example 909]
243 nM

Dear colleague, please send me the reported cAMP Rel EC50 (1% HSA) for Y[Aib]QGT[αMePhe(2-F)]TSDYSKLLDEIAQKAFIEYLLEGGPSSGEPPPSEG-NH2 (not fully specified (residue 20)) [Example 303] when you can.
257 nM
